tested on: Caco-2; experiment: Antiproliferative activity against human Caco-2 cell line at 10 uM relative to control; format: functional
*1 amine or outer side, *2 acyl side, *3 side chain or, on linkers, in order; H or OH if unused. Where a SMILES comes first, the peptide text is derived from it. [ ]: non-standard residue; d: D form. X1 = O=C(C(N[*:1])C1C2CC3CC(C2)CC1C3)[*:2]; X2 = O=C(C1(N[*:1])C2CC3CC(C2)CC1C3)[*:2]
RESULT TYPE: inhibition at 10 µM
Dear colleague, please send the value followed by its unit.

# example entries with known answers
{"columns": ["MOLECULE", "inhibition at 10 µM"],
 "data": [
  ["N[C@@H](Cc1ccc(O)cc1)C(=O)N[C@@H](C(=O)O)C1C2CC3CC(C2)CC1C3 (some centres undefined)", "21.4%"],
  ["N[C@@H](Cc1ccc(O)cc1)C(=O)NC1(C(=O)O)C2CC3CC(C2)CC1C3 (some centres undefined)", "22.7%"],
  ["CSCC[C@H](NC(=O)[C@H](Cc1ccccc1)NC(=O)CNC(=O)C(NC(=O)[C@@H](N)Cc1ccc(O)cc1)C1C2CC3CC(C2)CC1C3)C(=O)O (some centres undefined) (H-Y[X1]GFM-OH)", "10.9%"],
  ["CSCC[C@H](NC(=O)[C@H](Cc1ccccc1)NC(=O)CNC(=O)CNC(=O)[C@@H](N)Cc1ccc(O)cc1)C(=O)NC1(C(=O)O)C2CC3CC(C2)CC1C3 (some centres undefined) (H-YGGFM[X2]-OH)", "11.1%"]
]}

Attention now shifts to the item below.
According to the records, this molecule N[C@@H](Cc1ccc(O)cc1)C(=O)N[C@@H](C(=O)NCC(=O)O)C1C2CC3CC(C2)CC1C3 (some centres undefined) displays inhibition at 10 µM of 6.9%
